Hi there, I'd appreciate the recorded Ki for every entry that follows.
target: furin (UniProt P09958 108-715); assay: enzyme inhibition
Sequence (P09958 108-715): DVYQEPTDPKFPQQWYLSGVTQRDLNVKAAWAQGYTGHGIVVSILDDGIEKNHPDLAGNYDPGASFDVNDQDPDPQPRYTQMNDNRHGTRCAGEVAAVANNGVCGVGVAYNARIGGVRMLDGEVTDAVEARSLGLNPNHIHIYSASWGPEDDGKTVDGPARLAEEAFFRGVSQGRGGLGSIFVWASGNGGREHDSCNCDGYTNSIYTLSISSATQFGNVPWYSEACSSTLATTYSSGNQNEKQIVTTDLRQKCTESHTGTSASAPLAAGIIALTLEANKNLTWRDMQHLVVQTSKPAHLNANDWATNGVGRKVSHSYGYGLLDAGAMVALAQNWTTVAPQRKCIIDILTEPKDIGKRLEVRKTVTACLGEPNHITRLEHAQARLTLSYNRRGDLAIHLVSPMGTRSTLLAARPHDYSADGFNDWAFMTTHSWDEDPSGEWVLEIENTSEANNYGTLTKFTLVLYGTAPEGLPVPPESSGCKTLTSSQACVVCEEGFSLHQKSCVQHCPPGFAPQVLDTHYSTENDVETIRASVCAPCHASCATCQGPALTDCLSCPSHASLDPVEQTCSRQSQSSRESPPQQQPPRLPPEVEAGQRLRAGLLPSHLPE
No end group written: not given here.
Give the value, in units of nM, as a plain number.

What value of Ki has been reported for the following binder? LLLLLRVKR-NH2 [LLLLLRVKR-NH2]
1500

Next: LRVKR-NH2 [LRVKR-NH2]
550

Next: LLLRVKR-NH2 [LLLRVKR-NH2]
980

Next: LLLLLLRVKR-NH2 [LLLLLLRVKR-NH2]
1390

Next: RVKR-NH2 [RVKR-NH2]
8110
